# Tested on: recombinant RORγ Ligand Binding Domain (LBD) protein (Homo sapiens, UniProt P51449)
# Construct: 6×His; GST
# Sequence (P51449 269-508 limits assumed): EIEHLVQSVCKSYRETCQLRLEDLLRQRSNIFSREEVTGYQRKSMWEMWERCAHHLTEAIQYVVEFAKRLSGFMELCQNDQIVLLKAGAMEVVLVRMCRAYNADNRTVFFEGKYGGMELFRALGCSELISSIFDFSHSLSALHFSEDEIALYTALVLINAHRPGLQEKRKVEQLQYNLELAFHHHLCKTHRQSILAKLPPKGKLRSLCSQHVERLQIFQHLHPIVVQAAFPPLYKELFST
# Experimental protocol: Radio-Ligand RORγ Binding Assay (Assay 1)
# Conditions used: radio-ligand competition, 25-hydroxy [26,27-3H]-cholesterol, RORγ LBD; read-out: Avg ROR Bind Ki
Readout kind: Ki

// solved cases for Ki follow
>  <Compound>
CCS(=O)(=O)c1ccc([C@H](CO)NC(=O)c2ccc3c(C4CC4)n(C[C@H]4CC[C@H](C(F)(F)F)CC4)nc3c2)cc1

>  <Ki>
< 0.1 µM

$$$$
>  <Compound>
CCS(=O)(=O)c1ccc(CNC(=O)c2ccc3c(c2)CN(c2ncc(C(F)(F)F)cn2)C[C@@H]3C(C)C)cc1 (single isomer, unassigned)

>  <Ki>
< 0.1 µM

$$$$
>  <Compound>
CCS(=O)(=O)c1ccc(CNC(=O)c2ccc3c(OC4CCC(C(F)(F)F)CC4)nccc3c2)cc1 (single isomer, unassigned) [Hy1A-3.1]

>  <Ki>
< 0.1 µM

$$$$
>  <Compound>
CCS(=O)(=O)c1ccc(CNC(=O)c2ccc3c(OC[C@H]4CC[C@H](C(F)(F)F)CC4)nc(Cl)cc3c2)cc1

>  <Ki>
< 0.1 µM

$$$$
>  <Compound>
CCOC(=O)c1cnc(N2Cc3cc(C(=O)N[C@@H](CO)c4ccc(S(=O)(=O)CC)cc4)ccc3[C@@H](CC)C2)nc1 (single isomer, unassigned)

>  <Ki>
< 0.1 µM

$$$$

// moving on: another record for Ki
IN: Item CCOC(=O)c1cnc(N2Cc3cc(C(=O)NCc4ccc(S(=O)(=O)CC)cc4)ccc3[C@@H](C(C)C)C2)nc1 (single isomer, unassigned) has what recorded Ki?
OUT: 0.1 to 1 µM

----------
# Tested on: recombinant RORγ Ligand Binding Domain (LBD) protein (Homo sapiens)
# Construct: 6×His; GST
# Experimental protocol: Radio-Ligand RORγ Binding Assay (Assay 1)
# Conditions used: radio-ligand competition, 25-hydroxy [26,27-3H]-cholesterol, RORγ LBD; read-out: Avg ROR Bind Ki
Each item that follows carries a reported Ki.

// solved cases for Ki follow
>  <Compound>
CC[C@@H]1CN(c2ncc(C(F)(F)F)cc2C)Cc2cc(C(=O)NCc3ccc(S(=O)(=O)CC)cc3)ccc21 (single isomer, unassigned)

>  <Readout kind>
Ki

>  <Reported measurement>
< 100 nM

$$$$
>  <Compound>
CCS(=O)(=O)c1ccc(CNC(=O)c2ccc3c(c2)CCN(c2nccc(C(F)(F)F)n2)C3C(C)C)cc1 (centres unmarked)

>  <Readout kind>
Ki

>  <Reported measurement>
< 100 nM

$$$$
>  <Compound>
CCS(=O)(=O)c1ccc([C@@H](CO)NC(=O)c2ccc3c(OC[C@H]4CC[C@H](C(F)(F)F)CC4)nc(C)cc3c2)nc1 (single isomer, unassigned)

>  <Readout kind>
Ki

>  <Reported measurement>
< 100 nM

$$$$

IN: Item CCS(=O)(=O)c1ccc([C@H](CO)NC(=O)c2cn(C)c3c(OC[C@H]4CC[C@H](C(F)(F)F)CC4)nccc23)cc1 has what recorded Ki?
OUT: 100 to 1000 nM

IN: Try CCS(=O)(=O)c1ccc(CNC(=O)c2ccc3c(c2)CCN(Cc2ncc(C)cn2)[C@@H]3C(C)C)cc1 (single isomer, unassigned) next.
OUT: > 1000 nM

IN: Try CCS(=O)(=O)c1ccc(CNC(=O)c2ccc3c(Oc4ccc(C(F)(F)F)cc4)nccc3c2)cc1 next.
OUT: 100 to 1000 nM

IN: Try CCS(=O)(=O)c1ccc(CNC(=O)c2ccc3c(c2)CCN(Cc2ccc(C#N)cc2)[C@H]3C(C)C)cc1 (single isomer, unassigned) next.
OUT: < 100 nM

IN: Try CCS(=O)(=O)c1ccc(CNC(=O)c2cnc3c(c2)CN(c2ncc(C(F)(F)F)cn2)CC3(C)C)cc1 next.
OUT: 100 to 1000 nM

----------
Each item that follows carries a reported Ki.
# Tested on: recombinant RORγ Ligand Binding Domain (LBD) protein (Homo sapiens, UniProt P51449)
# Construct: 6×His; GST
# Experimental protocol: Radio-Ligand RORγ Binding Assay (Assay 1)
# Conditions used: radio-ligand competition, 25-hydroxy [26,27-3H]-cholesterol, RORγ LBD; read-out: Avg ROR Bind Ki

// solved cases for Ki follow
>  <Compound>
CCS(=O)(=O)c1ccc(CNC(=O)c2ccc3c(c2)CCN(Cc2ccc(C#N)cn2)[C@H]3C(C)C)cc1 (single isomer, unassigned)

>  <Tested on>
recombinant RORγ Ligand Binding Domain (LBD) protein (Homo sapiens, UniProt P51449)

>  <Readout kind>
Ki

>  <Reported measurement>
< 100 nM

$$$$
>  <Compound>
CCC1CN(c2ncc(C(F)(F)F)cn2)Cc2cc(C(=O)N[C@@H](CO)c3ccc(S(=O)(=O)CC)cc3)ccc21 (single isomer, unassigned) [Hy7-17.2]

>  <Tested on>
recombinant RORγ Ligand Binding Domain (LBD) protein (Homo sapiens, UniProt P51449)

>  <Readout kind>
Ki

>  <Reported measurement>
< 100 nM

$$$$
>  <Compound>
CCS(=O)(=O)c1ccc(CNC(=O)c2cn(C)c3c(Oc4ccc(C(F)(F)F)cc4)nccc23)cc1

>  <Tested on>
recombinant RORγ Ligand Binding Domain (LBD) protein (Homo sapiens, UniProt P51449)

>  <Readout kind>
Ki

>  <Reported measurement>
100 to 1000 nM

$$$$
>  <Compound>
CC[C@@H]1CN(c2ncc(-c3cccc(OC)n3)cn2)Cc2cc(C(=O)NCc3ccc(S(=O)(=O)CC)cc3)ccc21 (single isomer, unassigned)

>  <Tested on>
recombinant RORγ Ligand Binding Domain (LBD) protein (Homo sapiens, UniProt P51449)

>  <Readout kind>
Ki

>  <Reported measurement>
< 100 nM

$$$$

IN: Item CCC1c2ccc(C(=O)NC(CO)c3ccc(S(=O)(=O)CC)cc3)cc2CCN1CC1CCC(C(F)(F)F)CC1 (single isomer, unassigned) [Hy2A-28.3] has what recorded Ki?
OUT: 100 to 1000 nM

IN: Try CCS(=O)(=O)c1ccc(CNC(=O)c2ccc3c(c2)CN(c2ncc(-c4ccnc(OC)c4)cn2)C[C@@H]3C(C)C)cc1 (single isomer, unassigned) next.
OUT: 100 to 1000 nM

IN: Try CC[C@H]1CN(c2ccc(C(F)(F)F)cn2)Cc2cc(C(=O)NCc3ccc(S(=O)(=O)CC)cc3)ccc21 (single isomer, unassigned) next.
OUT: < 100 nM

IN: Try CCS(=O)(=O)c1ccc(CNC(=O)c2ccc3c(c2)CCN(Cc2ncc(C)cn2)[C@H]3C(C)C)cc1 (single isomer, unassigned) next.
OUT: 100 to 1000 nM

IN: Try CCS(=O)(=O)c1ccc([C@H](CO)NC(=O)c2ccc3c(OC[C@H]4CC[C@H](C(F)(F)F)CC4)nc(C)cc3c2)cc1 next.
OUT: < 100 nM

----------
Each item that follows carries a reported Ki.
# Tested on: recombinant RORγ Ligand Binding Domain (LBD) protein (Homo sapiens)
# Construct: 6×His; GST
# Experimental protocol: Radio-Ligand RORγ Binding Assay (Assay 1)
# Conditions used: radio-ligand competition, 25-hydroxy [26,27-3H]-cholesterol, RORγ LBD; read-out: Avg ROR Bind Ki

// solved cases for Ki follow
>  <Compound>
CC[C@@H]1CN(c2ncc(C(F)(F)F)cc2C)Cc2cc(C(=O)N[C@@H](CO)c3ccc(S(=O)(=O)CC)cc3)ccc21 (single isomer, unassigned)

>  <Ki>
< 100 nM

$$$$
>  <Compound>
CCS(=O)(=O)c1ccc(CNC(=O)c2cnc3c(C4CC4)n(C[C@H]4CC[C@H](C(F)(F)F)CC4)nc3c2)nc1

>  <Ki>
100 to 1000 nM

$$$$
>  <Compound>
CCS(=O)(=O)c1ccc([C@H](CO)NC(=O)c2ccc3c(COc4ccc(C(F)(F)F)cc4)nccc3c2)cc1

>  <Ki>
< 100 nM

$$$$
>  <Compound>
CCS(=O)(=O)c1ccc(CNC(=O)c2ccc3c(c2)CN(c2ncc(-c4ccc(=O)n(C)c4)cn2)C[C@@H]3C(C)C)cc1 (single isomer, unassigned)

>  <Ki>
> 1000 nM

$$$$
>  <Compound>
CCS(=O)(=O)c1ccc(CNC(=O)c2ccc3c(c2)CN(Cc2ccc(C#N)cc2)C[C@H]3C(C)C)cc1 (single isomer, unassigned)

>  <Ki>
< 100 nM

$$$$
>  <Compound>
CC[C@@H]1CN(c2ncc(-c3ncco3)cn2)Cc2cc(C(=O)NCc3ccc(S(=O)(=O)CC)cc3)ccc21 (single isomer, unassigned)

>  <Ki>
< 100 nM

$$$$
>  <Compound>
CCS(=O)(=O)c1ccc(CNC(=O)c2ccc3c(OC[C@H]4CC[C@H](C(F)(F)F)CC4)nccc3c2)cc1

>  <Ki>
< 100 nM

$$$$
>  <Compound>
CCS(=O)(=O)c1ccc([C@H](CO)NC(=O)c2ccc3c(OC[C@H]4CC[C@H](C(F)(F)F)CC4)nc(C)cc3c2)nc1 (single isomer, unassigned)

>  <Ki>
< 100 nM

$$$$

IN: Item CCS(=O)(=O)c1ccc(CNC(=O)c2ccc3c(c2)CCN(Cc2ccc(F)cc2)C3C)cc1 (racemic) has what recorded Ki?
OUT: 100 to 1000 nM

Data provenance: patent US11008340B2
